# target: Alpha-2A adrenergic receptor (Homo sapiens)
# Sequence (P08913 whole entry): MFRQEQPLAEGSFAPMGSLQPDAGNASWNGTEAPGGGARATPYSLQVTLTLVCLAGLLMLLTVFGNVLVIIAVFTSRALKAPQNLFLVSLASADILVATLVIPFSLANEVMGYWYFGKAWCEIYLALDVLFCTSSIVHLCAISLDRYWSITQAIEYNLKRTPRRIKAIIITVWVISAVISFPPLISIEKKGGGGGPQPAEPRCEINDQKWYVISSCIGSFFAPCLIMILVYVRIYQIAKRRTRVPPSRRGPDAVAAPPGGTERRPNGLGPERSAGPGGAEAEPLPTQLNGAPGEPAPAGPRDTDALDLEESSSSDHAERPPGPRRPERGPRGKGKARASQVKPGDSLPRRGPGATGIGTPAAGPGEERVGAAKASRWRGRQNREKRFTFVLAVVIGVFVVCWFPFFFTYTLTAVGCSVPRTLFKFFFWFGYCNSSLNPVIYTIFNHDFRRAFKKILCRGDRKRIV
# assayExplanation: Inhibitory activity against alpha-2A adrenergic receptor by using [3H]MK-912 as radioligand expressed in COS-1 cells
# Format: cell-based
testReadout: IC50

[[record]]
compound = "CN(C)c1nc(N[C@H]2CC[C@@H](NC(=O)c3ccc(F)c(F)c3)CC2)nc2ccccc12"
result = "0.26 µM"

[[record]]
compound = "CN(C)c1nc(NC2CCC(CNC(=O)c3ccc(Br)cc3OC(F)(F)F)CC2)nc2ccccc12 (cis isomer)"
result = "0.57 µM"

[[record]]
compound = "CN(C)c1nc(N[C@H]2CC[C@@H](NC(=O)c3cccc(C(F)(F)F)c3)CC2)nc2ccccc12"
result = "0.06 µM"

[[record]]
compound = "CN(Cc1ccc(Br)cc1OC(F)(F)F)CC1CCC(CNc2nc(N(C)C)c3ccccc3n2)CC1 (stereo not drawn)"
result = "0.044 µM"

[[record]]
compound = "CN(C)c1nc(NCC2CCC(CN(C)S(=O)(=O)c3ccc(Br)cc3OC(F)(F)F)CC2)nc2ccccc12 (stereo not drawn)"
result = "0.034 µM"

[[record]]
compound = "CN(C)c1nc(NCC2CCC(CNC(=O)c3ccc(Br)cc3OC(F)(F)F)CC2)nc2ccccc12 (stereo not drawn)"
result = "0.0099 µM"

[[record]]
compound = "COc1cc(OC)cc(C(=O)N[C@H]2CC[C@@H](Nc3nc(N(C)C)c4ccccc4n3)CC2)c1"
result = "0.071 µM"

[[record]]
compound = "CN(C)c1nc(NC2CCN(S(=O)(=O)c3ccc(Br)cc3OC(F)(F)F)CC2)nc2ccccc12"
result = "0.17 µM"

[[record]]
compound = "CN(C)c1nc(N[C@H]2CC[C@@H](NC(=O)c3cccc(Cl)c3)CC2)nc2ccccc12"
result = "0.076 µM"

[[record]]
compound = "CN(C)c1nc(N[C@H]2CC[C@@H](NC(=O)c3ccc(Cl)c(Cl)c3)CC2)nc2ccccc12"
result = "0.047 µM"

[[record]]
compound = "CN(C)c1nc(NC2CCN(Cc3ccc(Br)cc3OC(F)(F)F)CC2)nc2ccccc12"
result = "0.52 µM"

[[record]]
compound = "CN(C)c1nc(NCC2CCC(CNCc3ccc(Br)cc3OC(F)(F)F)CC2)nc2ccccc12 (stereo not drawn)"
result = "0.031 µM"

[[record]]
compound = "CN(C)c1nc(NC2CCC(NC(=O)c3ccc(Br)cc3OC(F)(F)F)CC2)nc2ccccc12 (cis isomer)"
result = "0.39 µM"

[[record]]
compound = "CN(C)c1nc(NC[C@H]2CC[C@H](CNS(=O)(=O)c3ccc(Br)cc3OC(F)(F)F)CC2)nc2ccccc12"
result = "0.0077 µM"

[[record]]
compound = "CN(C)c1nc(N[C@H]2CC[C@@H](NC(=O)c3cccc(Br)c3)CC2)nc2ccccc12"
result = "0.063 µM"

[[record]]
compound = "CN(C)c1nc(N[C@H]2CC[C@@H](NC(=O)c3cccc(F)c3)CC2)nc2ccccc12"
result = "0.13 µM"

[[record]]
compound = "CN(C)c1nc(NC2CCC(NCc3ccc(Br)cc3OC(F)(F)F)CC2)nc2ccccc12 (stereo not drawn)"
result = "0.17 µM"

[[record]]
compound = "Cc1cccc(C(=O)N[C@H]2CC[C@@H](Nc3nc(N(C)C)c4ccccc4n3)CC2)c1"
result = "0.11 µM"

